Exercise: state measured IC50 for each of the compounds provided.
# Study target: HLA-DR4 (DRB1*0401) molecules (Homo sapiens, UniProt P01903+P01911, A100K/A169T/F76Y/I96L/K127E/L162R/M171V/N62H/P40V/Q125Y/R42H/S133A/S149N/S66Y/V115G/V209L/W38E)
# Procedure summary: Competitive binding assay with recombinant water-soluble HLA-DR4
# Measurement setup: Affinity for HLA-DR4 (DRB1*0401) molecules determined by competition with biotinylated competitor HA 306-318, biotinylated competitor HA306-318
Residues, ends and D or L forms follow the SMILES beside them.
Numbers only, in nM.

INSERT INTO measurements (compound, unit_of_measurement, reported_result) VALUES
  ('C[C@H](N)C(=O)N[C@@H](C)C(=O)N[C@@H](CCCCN)C(=O)N[C@@H](Cc1ccc(O)cc1)C(=O)N[C@@H](C)C(=O)N[C@@H](CCC(=O)O)C(=O)N[C@@H](C)C(=O)N[C@@H](C)C(=O)N[C@@H](C)C(=O)N[C@@H](C)C(=O)N[C@@H](CCCCN)C(=O)N[C@@H](C)C(=O)N[C@@H](C)C(=O)N[C@@H](C)C(=O)N[C@@H](C)C(=O)O [compound 15] (H-AAKYAEAAAAKAAAA-OH)', 'nM', 1800),
  ('C[C@H](N)C(=O)N[C@@H](C)C(=O)N[C@@H](CCCCN)C(=O)N[C@@H](Cc1ccc(O)cc1)C(=O)N[C@@H](CCC(=O)O)C(=O)N[C@@H](C)C(=O)N[C@@H](C)C(=O)N[C@@H](C)C(=O)N[C@@H](C)C(=O)N[C@@H](C)C(=O)N[C@@H](CCCCN)C(=O)N[C@@H](C)C(=O)N[C@@H](C)C(=O)N[C@@H](C)C(=O)N[C@@H](C)C(=O)O [compound 14] (H-AAKYEAAAAAKAAAA-OH)', 'nM', 4000);

Consider the record given below.
Return reported IC50; argument: C[C@H](NC(=O)[C@H](C)NC(=O)[C@H](C)NC(=O)[C@H](C)NC(=O)[C@H](CCCCN)NC(=O)[C@H](C)NC(=O)[C@H](C)NC(=O)[C@H](C)NC(=O)[C@H](C)NC(=O)[C@H](C)NC(=O)[C@H](C)NC(=O)[C@H](Cc1ccc(O)cc1)NC(=O)[C@H](CCCCN)NC(=O)[C@H](CCCCN)NC(=O)[C@@H](N)CCC(=O)O)C(=O)O [compound 17] (H-EKKYAAAAAAKAAAA-OH)
1800

The reported measurements were obtained from patent US9066905B2.
